Tested on: MGO-mediated BSA glycation
test.protocol: In vitro antiglycation activity, MGO-BSA glycation assay (fluorescence)
Type: biochemical, bovine
protocol.conditions: compounds at 1 mM; BSA 10 mg/mL, MGO 0.1 M, 24 h, 37° C.

compound: O=c1c(O)c(-c2ccc(O)c(O)c2)oc2cc(O)cc(O)c12 [Quercetin, reference compound]
% inhibition of MGO-BSA glycation [%]: 58

compound: O=C(Cn1cc(Cn2c3ccccc3c3ccccc32)nn1)c1cccc([N+](=O)[O-])c1 [Compound 11]
% inhibition of MGO-BSA glycation [%]: 75.7

compound: Cc1ccccc1C(=O)Cn1cc(Cn2c3ccccc3c3ccccc32)nn1 [Compound 7]
% inhibition of MGO-BSA glycation [%]: 72
